pKi: −log10 of the molar value.
Compiled pKi measurements on Carbonic anhydrase 9 (Homo sapiens) taken from the literature.
parameter-measured: pKi

CN(CCCCCCOC(=O)c1c2ccccc2cc2ccccc12)CCCOC(=O)COc1ccc2ccc(=O)oc2c1 : 7.08
COc1cc(C(=O)OCCCN(C)CCCCCOC(=O)COc2ccc3ccc(=O)oc3c2)cc(OC)c1OC : 6.88
COC(=O)c1ccccc1NC(=O)COc1ccc2oc(=O)ccc2c1 : 5.69
CC1CCC2(CC1)N=C(N)N=C(N)N2c1ccc(S(N)(=O)=O)cc1 (centres unmarked) : 5.73
Cc1ccc(C2CC(c3ccc(O)cc3)=NN2c2ccc(S(N)(=O)=O)cc2)cc1 (centres unmarked) : 7.00

P: COCc1cc(=O)oc2cc(NC(=O)[C@@H](NC(=O)[C@H](C)NC(=O)OCc3ccccc3)C(C)(C)C)ccc12
Q: C=CCc1ccc(OCc2cn(CCCCCCCCCCOc3ccc4ccc(=O)oc4c3)nn2)c(OC)c1
Lab log: flag the item ( P or Q ) with the smaller pKi figure. Respond with the label that goes with your answer.
P
(P: 6.77, Q: 7.55)

A: CC(C)C(=O)Nc1ccc(C(=O)NC(=S)Nc2ccc(C(=O)O)cc2)cc1
B: CC(C)N(C(=S)NC(=O)c1cc2ccccc2oc1=O)C(C)C
// max by pKi over [ A , B ] Respond with the label that goes with your answer.
B
(B: 6.45, A: 6.05)

* * *

Compiled Ki measurements on Carbonic anhydrase 9 (Homo sapiens, UniProt Q16790) taken from the literature.
parameter-measured: Ki (nM)

Would you please look over these solved cases?
NS(=O)(=O)c1ccc(-n2c(-c3ccc(C(=O)O)cc3)nc(-c3ccccc3)c2-c2ccccc2)cc1 : 8500
Cc1ccc(C(C)C)cc1OCc1cn(CCCCCCCCCCCCOc2ccc3ccc(=O)oc3c2)nn1 : 30.4
COc1cc(C(=O)OCCCN(C)CCCCCOC(=O)c2ccc(S(N)(=O)=O)cc2)cc(OC)c1OC : 26.6
CN(C)CCCNC(=S)NC(=O)c1cc2ccccc2oc1=O : 182
Cc1ccc(C2=C/C(=C\c3ccc(Cl)cc3)C(=O)N2CCc2ccc(S(N)(=O)=O)cc2)cc1 : 95.5
O=C(COc1ccc2ccc(=O)oc2c1)NCc1ccccc1 : 83.7

1: NS(=O)(=O)c1ccc(CCN2C(=O)/C(=C/c3ccc(Br)cc3)C=C2c2ccc(Cl)cc2)cc1
2: C=CCc1ccc(OCCOc2ccc3ccc(=O)oc3c2)c(OC)c1
3: O=C(NC(=S)NN1CCOCC1)c1cc2ccccc2oc1=O
Ascending by Ki, please. Give the order by naming the labels one after another as requested.
1, 2, 3
(1: 74.3 nM, 2: 176 nM, 3: 2590 nM)

* * *

Compiled Ki measurements on Carbonic anhydrase 9 (Homo sapiens) taken from the literature.
parameter-measured: Ki (nM)

O=C(CN1C(=O)CSC1=O)c1cc2cc(Br)ccc2oc1=O : 240
Cc1ccc(C(C)C)c(OCCCOc2ccc3ccc(=O)oc3c2)c1 : 192
NS(=O)(=O)c1ccc(NC(=O)c2cc3occc3n2Cc2ccc(Cl)cc2)cc1 : 187
NS(=O)(=O)c1ccc(N2N=C(c3ccc(O)cc3)CC2c2ccc(Cl)cc2)cc1 (centres unmarked) : 97.7

P: CC(C)(C)c1ccc(C2=C/C(=C\c3ccccc3)C(=O)N2CCc2ccc(S(N)(=O)=O)cc2)cc1
Q: COC(=O)CNC(=O)N[C@@H](C)C(=O)Nc1ccc2c(C)cc(=O)oc2c1
R: NC1=NC2(CCCC2)NC(Nc2ccc(S(N)(=O)=O)cc2)=N1
S: CCCCCCN(CCCCCC)CC(=O)N(CCc1ccc(S(N)(=O)=O)cc1)Cc1ccc2ccccc2c1
T: CCN(CC(=O)N(CCc1ccc(S(N)(=O)=O)cc1)Cc1ccccc1)Cc1ccccc1
Place the items in sequence of falling Ki. Give the order by naming the labels one after another as requested.
R, P, S, Q, T

A: NS(=O)(=O)c1ccc(NC(=O)c2cc3sccc3n2Cc2ccccc2F)cc1
B: COc1cc(/C=C/C(=O)OCCCCCCCN(C)CCOC(=O)c2ccc(S(N)(=O)=O)cc2)cc(OC)c1OC
C: O=C(COc1ccc2oc(=O)ccc2c1)NCCc1ccccc1
Ascending by Ki, please. Give the order by naming the labels one after another as requested.
C, B, A
(C: 30.5 nM, B: 68.4 nM, A: 171 nM)
